- target.desc: DNA polymerase III PolC-type (Bacillus subtilis (strain 168)) (UniProt P13267)
- Sequence (P13267 whole entry, looked up): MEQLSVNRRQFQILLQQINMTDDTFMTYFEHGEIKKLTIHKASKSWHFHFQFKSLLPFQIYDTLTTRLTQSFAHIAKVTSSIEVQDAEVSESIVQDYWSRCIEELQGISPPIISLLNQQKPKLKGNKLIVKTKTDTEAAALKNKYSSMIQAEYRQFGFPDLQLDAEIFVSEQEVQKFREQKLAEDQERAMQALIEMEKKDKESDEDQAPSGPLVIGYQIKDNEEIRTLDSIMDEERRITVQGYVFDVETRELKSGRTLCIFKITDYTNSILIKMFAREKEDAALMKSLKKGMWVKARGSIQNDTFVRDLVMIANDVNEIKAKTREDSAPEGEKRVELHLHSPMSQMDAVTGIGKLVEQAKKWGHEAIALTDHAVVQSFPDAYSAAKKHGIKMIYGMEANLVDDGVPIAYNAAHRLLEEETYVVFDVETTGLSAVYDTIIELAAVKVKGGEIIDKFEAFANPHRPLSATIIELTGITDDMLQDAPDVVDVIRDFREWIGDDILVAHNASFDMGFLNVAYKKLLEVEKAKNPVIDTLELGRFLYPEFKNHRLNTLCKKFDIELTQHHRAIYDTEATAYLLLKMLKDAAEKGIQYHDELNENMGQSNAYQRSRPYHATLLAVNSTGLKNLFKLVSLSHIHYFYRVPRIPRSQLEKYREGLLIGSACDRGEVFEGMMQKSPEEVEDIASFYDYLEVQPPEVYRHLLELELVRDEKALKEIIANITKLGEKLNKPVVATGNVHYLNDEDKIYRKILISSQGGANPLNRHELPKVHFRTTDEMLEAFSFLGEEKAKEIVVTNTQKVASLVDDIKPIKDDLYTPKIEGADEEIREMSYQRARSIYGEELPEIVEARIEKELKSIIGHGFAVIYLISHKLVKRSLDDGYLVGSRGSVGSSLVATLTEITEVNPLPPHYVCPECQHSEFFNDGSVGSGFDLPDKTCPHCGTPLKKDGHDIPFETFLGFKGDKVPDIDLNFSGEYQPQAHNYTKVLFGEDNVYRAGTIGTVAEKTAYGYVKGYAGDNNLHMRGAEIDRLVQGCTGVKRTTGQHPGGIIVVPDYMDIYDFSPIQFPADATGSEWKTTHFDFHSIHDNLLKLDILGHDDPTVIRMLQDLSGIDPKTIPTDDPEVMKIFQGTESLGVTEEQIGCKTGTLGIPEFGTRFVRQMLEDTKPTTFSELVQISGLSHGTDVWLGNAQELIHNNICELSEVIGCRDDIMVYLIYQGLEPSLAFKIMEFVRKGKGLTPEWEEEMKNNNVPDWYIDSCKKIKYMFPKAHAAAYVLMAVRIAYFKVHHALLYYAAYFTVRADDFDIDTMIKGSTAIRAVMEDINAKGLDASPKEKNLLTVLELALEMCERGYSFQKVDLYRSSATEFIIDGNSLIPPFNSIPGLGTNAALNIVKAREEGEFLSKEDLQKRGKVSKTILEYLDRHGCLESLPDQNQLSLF
- test.name: qHTS Validation Assay for the Inhibitors of DNA Replication in Gram-Positive Bacteria (AID 485295);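 also: reconstituted holoenzyme with PolC plus beta clamp SSB and primase; PicoGreen fluorescence of double-stranded DNA made on primed circular M13 template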
- test.parameters: Gram-positive bacterial DNA replication assay; series mostly up to 57.1 µM
Active and inactive are the calls of the source. Calls follow the shape of the dose curve; as a rule, active = well fitted inhibition curve with a large enough effect; inconclusive = small, poorly fitted or top-dose-only effect; inactive = flat fitted curve, though single readings scatter.
# valid calls are active, inactive; nothing else

[
  {
    "molecule": "NCCCNCCSP(=O)(O)O",
    "target.desc": "DNA polymerase III PolC-type (Bacillus subtilis (strain 168)) (UniProt P13267)",
    "class.assignment": "inactive"
  },
  {
    "molecule": "CCCN(CCC)C(=O)C(CCC(=O)O)NC(=O)c1ccccc1 (configuration not stated)",
    "target.desc": "DNA polymerase III PolC-type (Bacillus subtilis (strain 168)) (UniProt P13267)",
    "class.assignment": "inactive"
  }
]

For the next question, use this molecule.
// param item: CCCCNc1c(C(=O)OCC)c(C)nc2c1cnn2CC ; yields the recorded call
inactive

----------
- test.name: qHTS of pediatric cancer cell lines to identify multiple opportunities for drug repurposing: Primary screen for BT-37 cells (AID 1347094)
- test.parameters: BT-37 viability, CellTiter-Glo luminescence, 48 h; series mostly up to 57.3 µM
Results filed as inconclusive are left out. The source made the active and inactive calls. Calls follow the shape of the dose curve; as a rule, active = well fitted cell-killing curve with a large enough effect; inconclusive = small, poorly fitted or top-dose-only effect; inactive = flat fitted curve, though single readings scatter.
# valid calls are active, inactive; nothing else

Below are worked cases with known answers.
[
  {
    "compound": "C[C@@H](O)[C@H]1C(=O)N2C(C(=O)O)=C(SCCN=CN)C[C@H]12",
    "class.assignment": "inactive"
  },
  {
    "compound": "CC(C)[N+](C)(CCOC(=O)C1c2ccccc2Oc2ccccc21)C(C)C",
    "class.assignment": "inactive"
  },
  {
    "compound": "CC(C)(Oc1ccc(CCNC(=O)c2ccc(Cl)cc2)cc1)C(=O)O",
    "class.assignment": "inactive"
  },
  {
    "compound": "CCN(CC)CCNC(=O)c1cc(S(C)(=O)=O)ccc1OC",
    "class.assignment": "inactive"
  },
  {
    "compound": "COCCCC/C(=N\\OCCN)c1ccc(C(F)(F)F)cc1",
    "class.assignment": "inactive"
  }
]

// param item: COc1cc(Cc2cnc(N)nc2N)cc(OC)c1OC ; yields the recorded call
inactive

# iterate: O=C(CCNNC(=O)c1ccncc1)NCc1ccccc1
inactive

# iterate: CN(C(=O)CCCOc1ccc2[nH]c(=O)ccc2c1)C1CCCCC1
inactive

----------
- System: TAB165
- test.name: qHTS profiling for inhibitors of Plasmodium falciparum proliferation (AID 504749); also: nearly all actives have a fitted effect of over 60% in size
- test.parameters: P. falciparum in erythrocytes, SYBR Green DNA, 72 h; series mostly up to 28.7 µM
- Procedure: NIH National Institute of Allergy and Infectious Diseases [NIAID] NIH Chemical Genomics Center [NCGC] […] Because mature erythrocytes lack DNA, only Plasmodium-derived DNA is detected. NCGC Assay Protocol Summary: The SYBR Green viability assay was adapted from a method described previously (Plouffe et al., 2008). […] The following morning, fluorescence intensity at 485(14) nm excitation and 535(25) nm emission wavelengths was measured on an EnVision (Perkin Elmer) plate reader. […]
Results filed as inconclusive are left out. The source made the active and inactive calls. The call rests on the fitted dose curve; in most records, active means well fitted inhibition curve with a large enough effect; inconclusive means small, poorly fitted or top-dose-only effect; inactive means flat fitted curve, though single readings scatter.
# valid calls are active, inactive; nothing else

Below are worked cases with known answers.
[
  {
    "molecule": "O=C(O)CN(CCOCCOCCN(CC(=O)O)CC(=O)O)CC(=O)O",
    "target.desc": "TAB165",
    "class.assignment": "inactive"
  },
  {
    "molecule": "Cc1nc2c([nH]1)c(=O)n(C)c(=O)n2Cc1ccco1",
    "target.desc": "TAB165",
    "class.assignment": "inactive"
  }
]

// param item: O=C(O)CCCCCCCC(=O)O ; yields the recorded call
inactive

# iterate: CCOC(=O)C1=C(C)NC(C)=C(C(=O)OC)C1c1cccc([N+](=O)[O-])c1 (configuration not stated)
active

# iterate: C[C@H](CS)C(=O)N1CCC[C@H]1C(=O)O
inactive
